For reference, Ki measured on Protein Kinase C beta 2 (PKCβII) (Homo sapiens (Human)):
The reply should consist of the numeric value with the unit placed after it.

Some compounds with known Ki results, for comparison:
{"molSmiles": "CCc1nc(C(=O)Nc2n[nH]c3c2CN(C(=O)N2C[C@@H](C)N(CC4CCOCC4)C[C@@H]2C)C3(C)C)cs1", "reportedMetric": "Ki", "result": "33.3 nM"}
{"molSmiles": "CC[C@H]1CN2CCC[C@@]2(C)CN1C(=O)N1Cc2c(NC(=O)c3ccc(F)cn3)n[nH]c2C1(C)C", "reportedMetric": "Ki", "result": "75.2 nM"}
{"molSmiles": "Cn1ccnc1C(=O)Nc1n[nH]c2c1CN(C(=O)N1C[C@@H]3CCCN3C[C@@H]1Cc1ccccc1)C2(C)C", "reportedMetric": "Ki", "result": "69.3 nM"}

Then this compound:
Find the recorded Ki belonging to `CCc1ccnc(C(=O)Nc2n[nH]c3c2CN(C(=O)N2C[C@@H]4CCCN4C[C@@H]2C)C3(C)C)c1` and report it.
66.3 nM
